Target: T1, Human CD3eg linker (human)
T1 construct: Single chain: epsilon and gamma subunits of human CD3 joined by a 29-mer linker, Flag-tag at the C-terminus; also called recombinant human CD3
T1 chain: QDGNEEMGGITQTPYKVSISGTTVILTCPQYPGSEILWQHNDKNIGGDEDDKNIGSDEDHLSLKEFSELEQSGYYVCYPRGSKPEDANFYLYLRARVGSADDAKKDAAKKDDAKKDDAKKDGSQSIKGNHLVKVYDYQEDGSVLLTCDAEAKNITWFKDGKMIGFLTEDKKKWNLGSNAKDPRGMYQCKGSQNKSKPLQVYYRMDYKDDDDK
Test: Biacore SPR, vs template H183/L072
fold change of affinity listing for selected binders.
Write it as a number; the unit fold goes unstated.

Recorded fold change of affinity (binder H183/L072 VH A56M (antibody, name in Kabat numbering, V domains shown) VH: QVQLVESGGGLVQPGRSLRLSCAASGFTFSNAWMHWVRQAPGKGLEWVAQIKDKGNAYMAYYAPSVKGRFTISRDDSKNSIYLQMNSLKTEDTAVYYCHYVHYASASTVLPAFGVDAWGQGTTVTVSS VL: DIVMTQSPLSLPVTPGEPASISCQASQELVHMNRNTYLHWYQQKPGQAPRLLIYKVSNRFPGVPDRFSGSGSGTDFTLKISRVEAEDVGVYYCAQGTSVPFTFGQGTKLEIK ): 1

fold change of affinity in this record for H183/L072 VH N31S (antibody, name in Kabat numbering, V domains shown) VH: QVQLVESGGGLVQPGRSLRLSCAASGFTFSSAWMHWVRQAPGKGLEWVAQIKDKGNAYAAYYAPSVKGRFTISRDDSKNSIYLQMNSLKTEDTAVYYCHYVHYASASTVLPAFGVDAWGQGTTVTVSS VL: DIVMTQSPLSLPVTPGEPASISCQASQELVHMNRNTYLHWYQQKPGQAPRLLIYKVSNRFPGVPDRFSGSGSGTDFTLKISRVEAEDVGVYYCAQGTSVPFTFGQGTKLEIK : 0.5

***
For record H183/L072 VH N31W (antibody, name in Kabat numbering, V domains shown) VH: QVQLVESGGGLVQPGRSLRLSCAASGFTFSWAWMHWVRQAPGKGLEWVAQIKDKGNAYAAYYAPSVKGRFTISRDDSKNSIYLQMNSLKTEDTAVYYCHYVHYASASTVLPAFGVDAWGQGTTVTVSS VL: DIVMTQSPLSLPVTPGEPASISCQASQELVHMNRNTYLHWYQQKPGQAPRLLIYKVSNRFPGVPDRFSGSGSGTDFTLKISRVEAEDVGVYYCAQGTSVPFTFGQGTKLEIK the listed fold change of affinity is 0.4

Hello, the source for this data is patent US20210388087A1, in case you need it.
